Target: T1, Human CD3eg linker (human)
T1 construct: Single chain: epsilon and gamma subunits of human CD3 joined by a 29-mer linker, Flag-tag at the C-terminus; also called recombinant human CD3
T1 chain: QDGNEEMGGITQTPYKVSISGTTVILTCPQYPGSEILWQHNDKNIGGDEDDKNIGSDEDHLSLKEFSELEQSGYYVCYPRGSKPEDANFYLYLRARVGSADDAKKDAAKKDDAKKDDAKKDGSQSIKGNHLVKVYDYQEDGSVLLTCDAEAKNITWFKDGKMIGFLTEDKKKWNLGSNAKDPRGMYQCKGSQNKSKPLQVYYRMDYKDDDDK
Assay: Biacore SPR, vs template H183/L072
The binders listed here are annotated with their fold change of affinity.
Give the number; fold is assumed, so skip it.

1. H183/L072 VH I51S (antibody, name in Kabat numbering, V domains shown) VH: QVQLVESGGGLVQPGRSLRLSCAASGFTFSNAWMHWVRQAPGKGLEWVAQSKDKGNAYAAYYAPSVKGRFTISRDDSKNSIYLQMNSLKTEDTAVYYCHYVHYASASTVLPAFGVDAWGQGTTVTVSS VL: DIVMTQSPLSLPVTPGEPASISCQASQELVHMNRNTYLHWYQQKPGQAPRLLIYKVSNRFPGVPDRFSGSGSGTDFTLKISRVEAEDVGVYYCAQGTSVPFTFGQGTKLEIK : 0.4

Output measured fold change of affinity for this item: H183/L072 VH G26V (antibody, name in Kabat numbering, V domains shown) VH: QVQLVESGGGLVQPGRSLRLSCAASVFTFSNAWMHWVRQAPGKGLEWVAQIKDKGNAYAAYYAPSVKGRFTISRDDSKNSIYLQMNSLKTEDTAVYYCHYVHYASASTVLPAFGVDAWGQGTTVTVSS VL: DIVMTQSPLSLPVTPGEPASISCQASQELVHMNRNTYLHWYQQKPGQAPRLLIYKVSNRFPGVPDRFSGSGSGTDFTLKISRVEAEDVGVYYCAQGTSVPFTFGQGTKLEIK
0

Output measured fold change of affinity for this item: H183/L072 VH H35W (antibody, name in Kabat numbering, V domains shown) VH: QVQLVESGGGLVQPGRSLRLSCAASGFTFSNAWMWWVRQAPGKGLEWVAQIKDKGNAYAAYYAPSVKGRFTISRDDSKNSIYLQMNSLKTEDTAVYYCHYVHYASASTVLPAFGVDAWGQGTTVTVSS VL: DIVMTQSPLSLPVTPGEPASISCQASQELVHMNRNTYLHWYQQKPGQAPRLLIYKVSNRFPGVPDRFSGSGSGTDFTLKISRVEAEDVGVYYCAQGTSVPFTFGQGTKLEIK
0

Output measured fold change of affinity for this item: H183/L072 VH A60E (antibody, name in Kabat numbering, V domains shown) VH: QVQLVESGGGLVQPGRSLRLSCAASGFTFSNAWMHWVRQAPGKGLEWVAQIKDKGNAYAAYYEPSVKGRFTISRDDSKNSIYLQMNSLKTEDTAVYYCHYVHYASASTVLPAFGVDAWGQGTTVTVSS VL: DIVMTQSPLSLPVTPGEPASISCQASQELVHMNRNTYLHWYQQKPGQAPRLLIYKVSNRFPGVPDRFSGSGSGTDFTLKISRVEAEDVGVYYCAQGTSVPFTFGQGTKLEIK
1.1

Output measured fold change of affinity for this item: H183/L072 VH F29A (antibody, name in Kabat numbering, V domains shown) VH: QVQLVESGGGLVQPGRSLRLSCAASGFTASNAWMHWVRQAPGKGLEWVAQIKDKGNAYAAYYAPSVKGRFTISRDDSKNSIYLQMNSLKTEDTAVYYCHYVHYASASTVLPAFGVDAWGQGTTVTVSS VL: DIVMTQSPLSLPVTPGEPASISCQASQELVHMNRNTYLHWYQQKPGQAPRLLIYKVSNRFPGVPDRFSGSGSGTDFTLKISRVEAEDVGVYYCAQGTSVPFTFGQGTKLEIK
0.2

Output measured fold change of affinity for this item: H183/L072 VH T100bI (antibody, name in Kabat numbering, V domains shown) VH: QVQLVESGGGLVQPGRSLRLSCAASGFTFSNAWMHWVRQAPGKGLEWVAQIKDKGNAYAAYYAPSVKGRFTISRDDSKNSIYLQMNSLKTEDTAVYYCHYVHYASASIVLPAFGVDAWGQGTTVTVSS VL: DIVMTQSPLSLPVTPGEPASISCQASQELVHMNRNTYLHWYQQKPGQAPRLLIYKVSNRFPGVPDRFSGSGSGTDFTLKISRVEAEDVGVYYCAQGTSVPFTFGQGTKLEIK
1.4

Output measured fold change of affinity for this item: H183/L072 VH A32W (antibody, name in Kabat numbering, V domains shown) VH: QVQLVESGGGLVQPGRSLRLSCAASGFTFSNWWMHWVRQAPGKGLEWVAQIKDKGNAYAAYYAPSVKGRFTISRDDSKNSIYLQMNSLKTEDTAVYYCHYVHYASASTVLPAFGVDAWGQGTTVTVSS VL: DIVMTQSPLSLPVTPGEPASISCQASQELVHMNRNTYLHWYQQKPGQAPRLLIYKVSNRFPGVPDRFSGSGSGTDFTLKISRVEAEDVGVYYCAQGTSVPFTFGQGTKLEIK
0.1
